experiment: PK study of Form A of Compound I in dogs; type: in vivo; conditions: beagle, dog, plasma, po, 75 mg/kg, PO dose of 75 mg/kg, 0.5 hr, Mean, read-out: mean plasma concentration
measure: concentration at 0.5 hr (ng/mL)
Provide only the numeric value, understood in ng/mL.

Reported concentration at 0.5 hr for COC(=O)N[C@H](C(=O)N1CCC[C@H]1c1ncc(-c2ccc3cc(-c4ccc5nc([C@@H]6CCCN6C(=O)[C@@H](NC(=O)OC)C(C)C)[nH]c5c4)ccc3c2)[nH]1)C(C)C [Form A of Compound I] was 1020

---

assay: PK study of Form I of Compound II in monkeys; type: in vivo; conditions: male, cynomolgus monkey, plasma, po, 75 mg/kg, PO dose of 75 mg/kg, 0.5 hr, Mean, read-out: mean plasma concentration
measure: concentration at 0.5 hr (ng/mL)
Answer with a number only, understood to be in ng/mL.

# concentration at 0.5 hr (molecule: CC[C@H](C)[C@H](NC(=O)OC)C(=O)N1CCC[C@H]1c1nc2ccc(-c3ccc4cc(-c5cnc([C@@H]6CCCN6C(=O)[C@@H](NC(=O)OC)[C@@H](C)OC)[nH]5)ccc4c3)cc2[nH]1 [Form I of Compound II] ) is 240

---

assay: Solubility of Form I and free base compound 4-3 (visual and HPLC assay of filtrate); format: physicochemical; conditions: pH 3 medium, pH 3, aqueous buffer, thermodynamic from solid, pH 3 medium; target conc. 2.0 mg/mL; 24 hours ambient; 0.45-μm filtrate; read-out: HPLC Solubility
measure: solubility at 24 h (µg/mL)
Express the result in µg/mL but write the number alone.

What the record says about CC[C@H](C)[C@H](NC(=O)OC)C(=O)N1CCC[C@H]1c1nc2ccc(-c3ccc4cc(-c5cnc([C@@H]6CCCN6C(=O)[C@@H](NC(=O)OC)[C@@H](C)OC)[nH]5)ccc4c3)cc2[nH]1 [Form I of Compound II] : solubility at 24 h is 2030

---

assay: PK study of Form I of Compound II in monkeys; format: in vivo; conditions: male, cynomolgus monkey, plasma, po, 75 mg/kg, PO dose of 75 mg/kg, 2 hr, #0612169, read-out: plasma concentration
measure: concentration at 2 hr
Param answer (str): number followed by unit.

Please fill in: concentration at 2 hr reported for CC[C@H](C)[C@H](NC(=O)OC)C(=O)N1CCC[C@H]1c1nc2ccc(-c3ccc4cc(-c5cnc([C@@H]6CCCN6C(=O)[C@@H](NC(=O)OC)[C@@H](C)OC)[nH]5)ccc4c3)cc2[nH]1 [Form I of Compound II] = 954 ng/mL

---

assay: Solubility of Form A (aliquot addition / slurry, visual); type: physicochemical; conditions: organic solvent or mixture, thermodynamic from solid; IPA, ~60° C., slurry, 6 days
measure: solubility at 6 days

The molecule listed as COC(=O)N[C@H](C(=O)N1CCC[C@H]1c1ncc(-c2ccc3cc(-c4ccc5nc([C@@H]6CCCN6C(=O)[C@@H](NC(=O)OC)C(C)C)[nH]c5c4)ccc3c2)[nH]1)C(C)C [Form A of Compound I] shows solubility at 6 days equal to < 6000 µg/mL

---

assay: PK study of Form A of Compound I in rats; assay type: in vivo; details: male, Sprague-Dawley, rat, plasma, po, 75 mg/kg, single PO dose of 75 mg/kg, male SD rats, 24 hr, Mean (N = 3); read-out: mean plasma concentration
measure: concentration at 24 h (ng/mL)
Write down the numeric answer in ng/mL and omit the unit.

Kindly note the recorded concentration at 24 h for COC(=O)N[C@H](C(=O)N1CCC[C@H]1c1ncc(-c2ccc3cc(-c4ccc5nc([C@@H]6CCCN6C(=O)[C@@H](NC(=O)OC)C(C)C)[nH]c5c4)ccc3c2)[nH]1)C(C)C [Form A of Compound I] , which is 8.07

---

assay: PK study of Form A of Compound I in dogs; type: in vivo; conditions: beagle, dog, plasma, po, 75 mg/kg, PO dose of 75 mg/kg, 1 hr, Dog #1, read-out: plasma concentration
measure: concentration at 1 hr (ng/mL)
Report as a plain number; the unit ng/mL is understood.

Entry COC(=O)N[C@H](C(=O)N1CCC[C@H]1c1ncc(-c2ccc3cc(-c4ccc5nc([C@@H]6CCCN6C(=O)[C@@H](NC(=O)OC)C(C)C)[nH]c5c4)ccc3c2)[nH]1)C(C)C [Form A of Compound I] , concentration at 1 hr reported as 1590

---

assay: PK study of Form A of Compound I in dogs; format: in vivo; settings: beagle, dog, plasma, po, 75 mg/kg, PO dose of 75 mg/kg, 8 hr, Dog #1, read-out: plasma concentration
measure: concentration at 8 hr (ng/mL)
Give the value, in units of ng/mL, as a plain number.

concentration at 8 hr recorded for this molecule, COC(=O)N[C@H](C(=O)N1CCC[C@H]1c1ncc(-c2ccc3cc(-c4ccc5nc([C@@H]6CCCN6C(=O)[C@@H](NC(=O)OC)C(C)C)[nH]c5c4)ccc3c2)[nH]1)C(C)C [Form A of Compound I] , is 3500

---

experiment: PK study of Form A of Compound I in dogs; format: in vivo; conditions: beagle, dog, plasma, po, 75 mg/kg, PO dose of 75 mg/kg, 4 hr, Dog #1, read-out: plasma concentration
measure: concentration at 4 hr (ng/mL)
Numbers only here, please. The scale is ng/mL.

Form: molecule = COC(=O)N[C@H](C(=O)N1CCC[C@H]1c1ncc(-c2ccc3cc(-c4ccc5nc([C@@H]6CCCN6C(=O)[C@@H](NC(=O)OC)C(C)C)[nH]c5c4)ccc3c2)[nH]1)C(C)C [Form A of Compound I] ; concentration at 4 hr = 3080

---

experiment: PK study of Form A of Compound I in rats; assay type: in vivo; settings: male, Sprague-Dawley, rat, plasma, po, 75 mg/kg, single PO dose of 75 mg/kg, male SD rats, 12 hr, Mean (N = 3); read-out: mean plasma concentration
measure: concentration at 12 h (ng/mL)
Dear colleague, please return just the value in ng/mL, with no unit written.

The value of concentration at 12 h measured for the molecule COC(=O)N[C@H](C(=O)N1CCC[C@H]1c1ncc(-c2ccc3cc(-c4ccc5nc([C@@H]6CCCN6C(=O)[C@@H](NC(=O)OC)C(C)C)[nH]c5c4)ccc3c2)[nH]1)C(C)C [Form A of Compound I] turned out to be 176

---

assay: PK study of Form I of Compound II in monkeys; type: in vivo; settings: male, cynomolgus monkey, plasma, po, 75 mg/kg, PO dose of 75 mg/kg, 24 hr, #0610703, read-out: plasma concentration
measure: concentration at 24 h (ng/mL)
Expressed in ng/mL, but write only the number.

Entry CC[C@H](C)[C@H](NC(=O)OC)C(=O)N1CCC[C@H]1c1nc2ccc(-c3ccc4cc(-c5cnc([C@@H]6CCCN6C(=O)[C@@H](NC(=O)OC)[C@@H](C)OC)[nH]5)ccc4c3)cc2[nH]1 [Form I of Compound II] ; concentration at 24 h = 8.79

---

experiment: PK study of Form I of Compound II in monkeys; format: in vivo; conditions: male, cynomolgus monkey, plasma, po, 75 mg/kg, PO dose of 75 mg/kg, 6 hr, Mean, read-out: mean plasma concentration
measure: concentration at 6 hr

The molecule listed as CC[C@H](C)[C@H](NC(=O)OC)C(=O)N1CCC[C@H]1c1nc2ccc(-c3ccc4cc(-c5cnc([C@@H]6CCCN6C(=O)[C@@H](NC(=O)OC)[C@@H](C)OC)[nH]5)ccc4c3)cc2[nH]1 [Form I of Compound II] has a reported concentration at 6 hr of 0.152 µg/mL

---

assay: PK study of Form I of Compound II in monkeys; assay type: in vivo; conditions: male, cynomolgus monkey, plasma, po, 75 mg/kg, PO dose of 75 mg/kg, 0.25 hr, #0612169, read-out: plasma concentration
measure: concentration at 0.25 h (ng/mL)
Express your answer in ng/mL, writing the number without its unit.

Lookup result for CC[C@H](C)[C@H](NC(=O)OC)C(=O)N1CCC[C@H]1c1nc2ccc(-c3ccc4cc(-c5cnc([C@@H]6CCCN6C(=O)[C@@H](NC(=O)OC)[C@@H](C)OC)[nH]5)ccc4c3)cc2[nH]1 [Form I of Compound II] ; measured concentration at 0.25 h: 86.8

---

assay: PK study of Form A of Compound I in rats; type: in vivo; settings: male, Sprague-Dawley, rat, plasma, po, 75 mg/kg, single PO dose of 75 mg/kg, male SD rats, 8 hr, Rat #3; read-out: plasma concentration
measure: concentration at 8 h (ng/mL)
Answer format: numeric, ng/mL implied, no suffix.

For COC(=O)N[C@H](C(=O)N1CCC[C@H]1c1ncc(-c2ccc3cc(-c4ccc5nc([C@@H]6CCCN6C(=O)[C@@H](NC(=O)OC)C(C)C)[nH]c5c4)ccc3c2)[nH]1)C(C)C [Form A of Compound I] the compound record lists concentration at 8 h as 390
